The measured values listed here are drawn from PubChem BioAssay AID1963834.

So I've got a bunch of compounds here, and I need their IC50 values.
- Test system: 873145-292-R-J1-PDC complex spheroid viability
- ASSAY_METHOD_TEXT: Anticancer human tumor 873145-292-R-J1-PDC patient-derived renal clear cell carcinoma cell line growth inhibition [POLQ]
- ASSAY_CONDITIONS: curve of first compound; second compound 3.16 µM

Take a look at these entries with their results.
[
  {
    "COMPOUND": "CCc1c2c(nc3ccc(O)cc13)-c1cc3c(c(=O)n1C2)COC(=O)[C@]3(O)CC + Nc1ccc(C#CCN(C(=O)Cc2ncc(C(F)(F)F)cc2C(F)(F)F)c2ccc(F)cc2)nn1",
    "MEASURED_RESULT": "79 nM"
  },
  {
    "COMPOUND": "Nc1ccn(C2OC(CO)C(O)C2(F)F)c(=O)n1 (stereo not given) + Nc1ccc(C#CCN(C(=O)Cc2ncc(C(F)(F)F)cc2C(F)(F)F)c2ccc(F)cc2)nn1",
    "MEASURED_RESULT": "> 10000 nM"
  },
  {
    "COMPOUND": "COc1cccc2c1C(=O)c1c(O)c3c(c(O)c1C2=O)CC(O)(C(=O)CO)CC3OC1CC(N)C(O)C(C)O1 (stereo not given) + Nc1ccc(C#CCN(C(=O)Cc2ncc(C(F)(F)F)cc2C(F)(F)F)c2ccc(F)cc2)nn1",
    "MEASURED_RESULT": "1250 nM"
  },
  {
    "COMPOUND": "CC(C)n1c(=O)n(C)c2cnc3cc(F)c(-c4ccc(OCCCN5CCCCC5)nc4)cc3c21 + Cc1cccc(N(C)C(=O)C2C(O)CCN2c2nc(C)cc(C(F)(F)F)c2C#N)c1",
    "MEASURED_RESULT": "> 10000 nM"
  }
]

[ask] // query IC50 value for entry COc1cccc2c1C(=O)c1c(O)c3c(c(O)c1C2=O)CC(O)(C(=O)CO)CC3OC1CC(N)C(O)C(C)O1 (stereo not given) + Cc1cccc(N(C)C(=O)C2C(O)CCN2c2nc(C)cc(C(F)(F)F)c2C#N)c1
[reply] 1140 nM

---

- Test system: 873145-292-R-J1-PDC complex spheroid viability
- ASSAY_METHOD_TEXT: Anticancer human tumor 873145-292-R-J1-PDC cell line growth inhibition [POLQ];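 note: spheroids exposed to compounds for 7 days before viability readout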;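 for viability, T/C: luminescence signal used as surrogate for viable cell content; 100% = DMSO vehicle control viability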
- ASSAY_CONDITIONS: second compound 10 µM; first compound 1 µM; stronger effect = lower value
Exercise: for every item that follows, state its recorded viability, T/C.
Answers are plain numbers, in %.

[
  {
    "COMPOUND": "CNCc1ccc(-c2[nH]c3cc(F)cc4c3c2CCNC4=O)cc1 + Cc1cccc(N(C)C(=O)C2C(O)CCN2c2nc(C)cc(C(F)(F)F)c2C#N)c1",
    "viability, T/C [%]": 88.8
  },
  {
    "COMPOUND": "O=c1[nH]cc(F)c(=O)[nH]1 + Nc1ccc(C#CCN(C(=O)Cc2ncc(C(F)(F)F)cc2C(F)(F)F)c2ccc(F)cc2)nn1",
    "viability, T/C [%]": 116
  }
]

[ask] Any idea what its viability, T/C is? The compound is CC1COCCN1c1cc(C2(S(C)(=N)=O)CC2)nc(-c2ccnc3[nH]ccc23)n1 (stereo not drawn) + Nc1ccc(C#CCN(C(=O)Cc2ncc(C(F)(F)F)cc2C(F)(F)F)c2ccc(F)cc2)nn1
[reply] 110

---

- Tested on: 873145-292-R-J1-PDC complex spheroid viability
- ASSAY_METHOD_TEXT: Anticancer human tumor 873145-292-R-J1-PDC cell line growth inhibition [POLQ];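 note: spheroids exposed to compounds for 7 days before viability readout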
- ASSAY_CONDITIONS: curve of first compound; second compound 1 µM
So I've got a bunch of compounds here, and I need their IC50 values.

Reference set, count: 10
[
  {
    "COMPOUND": "CC(C)n1c(=O)n(C)c2cnc3cc(F)c(-c4ccc(OCCCN5CCCCC5)nc4)cc3c21 + COC1C(OC(N)=O)C(O)C(Oc2ccc3c(O)c(NC(=O)c4ccc(O)c(CC=C(C)C)c4)c(=O)oc3c2C)OC1(C)C",
    "MEASURED_RESULT": "> 10 µM"
  },
  {
    "COMPOUND": "CCc1c2c(nc3ccc(O)cc13)-c1cc3c(c(=O)n1C2)COC(=O)[C@]3(O)CC + Nc1ccc(C#CCN(C(=O)Cc2ncc(C(F)(F)F)cc2C(F)(F)F)c2ccc(F)cc2)nn1",
    "MEASURED_RESULT": "0.114 µM"
  },
  {
    "COMPOUND": "CCc1cc2c(N3CCc4c(cc(Cn5ccnc5)cc4-c4cn(C)nc4C(F)(F)F)C3=O)cc(C)nc2c(OC)n1 + Nc1ccc(C#CCN(C(=O)Cc2ncc(C(F)(F)F)cc2C(F)(F)F)c2ccc(F)cc2)nn1",
    "MEASURED_RESULT": "> 10 µM"
  },
  {
    "COMPOUND": "Cn1ncnc1[C@H]1c2n[nH]c(=O)c3cc(F)cc(c23)N[C@@H]1c1ccc(F)cc1 + Nc1ccc(C#CCN(C(=O)Cc2ncc(C(F)(F)F)cc2C(F)(F)F)c2ccc(F)cc2)nn1",
    "MEASURED_RESULT": "> 0.1 µM"
  },
  {
    "COMPOUND": "CC1COCCN1c1cc(C2(O)CC3CCC(C2)O3)c2cnn(-c3ccn[nH]3)c2n1 (stereo not given) + COC1C(OC(N)=O)C(O)C(Oc2ccc3c(O)c(NC(=O)c4ccc(O)c(CC=C(C)C)c4)c(=O)oc3c2C)OC1(C)C",
    "MEASURED_RESULT": "0.484 µM"
  },
  {
    "COMPOUND": "CC(=O)O[C@H]1C(=O)[C@@]2(C)[C@H]([C@H](OC(=O)c3ccccc3)[C@]3(O)C[C@H](OC(=O)[C@H](O)[C@@H](NC(=O)c4ccccc4)c4ccccc4)C(C)=C1C3(C)C)[C@]1(OC(C)=O)CO[C@@H]1C[C@@H]2O + COC1C(OC(N)=O)C(O)C(Oc2ccc3c(O)c(NC(=O)c4ccc(O)c(CC=C(C)C)c4)c(=O)oc3c2C)OC1(C)C",
    "MEASURED_RESULT": "> 3 µM"
  },
  {
    "COMPOUND": "CC1COCCN1c1cc(C2(S(C)(=N)=O)CC2)nc(-c2ccnc3[nH]ccc23)n1 (stereo not given) + COC1C(OC(N)=O)C(O)C(Oc2ccc3c(O)c(NC(=O)c4ccc(O)c(CC=C(C)C)c4)c(=O)oc3c2C)OC1(C)C",
    "MEASURED_RESULT": "> 10 µM"
  },
  {
    "COMPOUND": "Nc1ccn(C2OC(CO)C(O)C2(F)F)c(=O)n1 (stereo not given) + Cc1cccc(N(C)C(=O)C2C(O)CCN2c2nc(C)cc(C(F)(F)F)c2C#N)c1",
    "MEASURED_RESULT": "> 10 µM"
  },
  {
    "COMPOUND": "CC[C@@]1(O)C(=O)OCc2c1cc1n(c2=O)Cc2cc3c(CN(C)C)c(O)ccc3nc2-1 + Cc1cccc(N(C)C(=O)C2C(O)CCN2c2nc(C)cc(C(F)(F)F)c2C#N)c1",
    "MEASURED_RESULT": "> 0.1 µM"
  },
  {
    "COMPOUND": "CCCS(=O)(=O)Nc1ccc(F)c(C(=O)c2c[nH]c3ncc(-c4ccc(Cl)cc4)cc23)c1F + COC1C(OC(N)=O)C(O)C(Oc2ccc3c(O)c(NC(=O)c4ccc(O)c(CC=C(C)C)c4)c(=O)oc3c2C)OC1(C)C",
    "MEASURED_RESULT": "> 10 µM"
  }
]

Required: IC50, one value per compound below.
1. CC(C)n1c(=O)n(C)c2cnc3cc(F)c(-c4ccc(OCCCN5CCCCC5)nc4)cc3c21 + Nc1ccc(C#CCN(C(=O)Cc2ncc(C(F)(F)F)cc2C(F)(F)F)c2ccc(F)cc2)nn1
2. C#Cc1c(F)ccc2cc(O)cc(-c3ncc4c(N5CC6CCC(C5)N6)nc(OCC56CCCN5CC(F)C6)nc4c3F)c12 (stereo not given) + Cc1cccc(N(C)C(=O)C2C(O)CCN2c2nc(C)cc(C(F)(F)F)c2C#N)c1
3. CC(C)n1c(=O)n(C)c2cnc3cc(F)c(-c4ccc(OCCCN5CCCCC5)nc4)cc3c21 + Cc1cccc(N(C)C(=O)C2C(O)CCN2c2nc(C)cc(C(F)(F)F)c2C#N)c1
4. C#Cc1c(F)ccc2cc(O)cc(-c3ncc4c(N5CC6CCC(C5)N6)nc(OCC56CCCN5CC(F)C6)nc4c3F)c12 (stereo not given) + Nc1ccc(C#CCN(C(=O)Cc2ncc(C(F)(F)F)cc2C(F)(F)F)c2ccc(F)cc2)nn1
5. CCc1cc2c(N3CCc4c(cc(Cn5ccnc5)cc4-c4cn(C)nc4C(F)(F)F)C3=O)cc(C)nc2c(OC)n1 + Cc1cccc(N(C)C(=O)C2C(O)CCN2c2nc(C)cc(C(F)(F)F)c2C#N)c1
6. O=c1[nH]cc(F)c(=O)[nH]1 + COC1C(OC(N)=O)C(O)C(Oc2ccc3c(O)c(NC(=O)c4ccc(O)c(CC=C(C)C)c4)c(=O)oc3c2C)OC1(C)C
7. CC1COCCN1c1cc(-c2ccnn2C)c2ccnc(-c3ccn[nH]3)c2n1 (stereo not given) + COC1C(OC(N)=O)C(O)C(Oc2ccc3c(O)c(NC(=O)c4ccc(O)c(CC=C(C)C)c4)c(=O)oc3c2C)OC1(C)C

[reply]
["> 10 µM", "> 10 µM", "> 10 µM", "> 10 µM", "> 10 µM", "> 10 µM", "0.864 µM"]

Take each entry in turn and give its IC50.
1. Cn1ncnc1[C@H]1c2n[nH]c(=O)c3cc(F)cc(c23)N[C@@H]1c1ccc(F)cc1 + Cc1cccc(N(C)C(=O)C2C(O)CCN2c2nc(C)cc(C(F)(F)F)c2C#N)c1
2. COc1cc2cc(C(=O)CCC(=O)O)sc2cc1OC + Cc1cccc(N(C)C(=O)C2C(O)CCN2c2nc(C)cc(C(F)(F)F)c2C#N)c1
3. Nc1ccn(C2OC(CO)C(O)C2(F)F)c(=O)n1 (stereo not given) + Nc1ccc(C#CCN(C(=O)Cc2ncc(C(F)(F)F)cc2C(F)(F)F)c2ccc(F)cc2)nn1

[reply]
["> 0.1 µM", "> 10 µM", "> 10 µM"]
